- System name: Toxoplasma gondii purine nucleoside phosphorylase (Toxoplasma gondii)
- Measurement protocol: Compound was evaluated for its binding affinity against Toxoplasma gondii purine nucleoside phosphorylase from cystic strain ME 49 (value indicates Non competitive inhibition)
Hi! Could you tag entries with Ki below 600 µM as y, and those at or above as n? Much appreciated.

See these solved cases before continuing.
>  <Mol>
O=C1C=CC(=O)c2c1ncn2Cc1ccccc1F

>  <System name>
Toxoplasma gondii purine nucleoside phosphorylase (Toxoplasma gondii)

>  <Class assignment>
n

$$$$
>  <Mol>
O=C1C=CC(=O)c2[nH]cnc21

>  <System name>
Toxoplasma gondii purine nucleoside phosphorylase (Toxoplasma gondii)

>  <Class assignment>
y

$$$$
>  <Mol>
O=C1C=CC(=O)c2c1ncn2Cc1ccc(F)cc1

>  <System name>
Toxoplasma gondii purine nucleoside phosphorylase (Toxoplasma gondii)

>  <Class assignment>
n

$$$$
>  <Mol>
CCCCn1cnc2c1C(=O)C=CC2=O

>  <System name>
Toxoplasma gondii purine nucleoside phosphorylase (Toxoplasma gondii)

>  <Class assignment>
y

$$$$

Okay, next one:
Quick check: does O=C1C=CC(=O)c2c1ncn2Cc1cccc(F)c1 have Ki under 600 µM?
y
